Cited source: ChEMBL document CHEMBL5247617

Quick list: Tmax per entry.
Assay: Tmax in BALB/c mouse brain at 25 mg/kg, po measured upto 24 hrs by LC-MS/MS analysis
Assay type: ADME, organism-based

>  <structure smiles string>
Cc1nc[nH]c1C(=O)NNC(=S)Nc1ccc([N+](=O)[O-])cc1

>  <Tmax>
2 h

$$$$

[ask] Determine from records and report Tmax for Cc1nc[nH]c1C(=O)NNC(=S)Nc1cccc(I)c1
[reply] 0.25 h

---

Quick list: AUC at 24 h per entry.
Test: AUC in BALB/c mouse brain at 25 mg/kg, po measured upto 24 hrs by LC-MS/MS analysis
Format: ADME, organism-based
Parameters: time < 24 hrs, dose 25 mg/kg, route po
Enter your answer as a number in ng·h/mL; do not include the unit.

>  <structure smiles string>
Cc1nc[nH]c1C(=O)NNC(=S)Nc1ccc([N+](=O)[O-])cc1

>  <quantity unit>
ng·h/mL

>  <AUC at 24 h>
24.9

$$$$

Please turn your attention to the following entry.
[ask] Determine from records and report AUC at 24 h for Cc1nc[nH]c1C(=O)NNC(=S)Nc1cccc(I)c1
[reply] 69.9

---

Quick list: AUC at 24 h per entry.
Assay: AUC in BALB/c mouse brain at 50 mg/kg, po measured upto 24 hrs by LC-MS/MS analysis
Assay type: ADME, organism-based
Set-up: dose 50 mg/kg, time < 24 hrs, route po
Quote the value and follow it with the unit of measurement.

>  <structure smiles string>
Cc1nc[nH]c1C(=O)NNC(=S)Nc1ccc([N+](=O)[O-])cc1

>  <AUC at 24 h>
47.5 ng·h/mL

$$$$

Please turn your attention to the following entry.
[ask] Determine from records and report AUC at 24 h for Cc1nc[nH]c1C(=O)NNC(=S)Nc1cccc(I)c1
[reply] 167 ng·h/mL

---

Test: Tmax in BALB/c mouse brain at 50 mg/kg, po measured upto 24 hrs by LC-MS/MS analysis
Type: ADME, organism-based
Quick list: Tmax per entry.
Enter your answer as a number in min; do not include the unit.

>  <structure smiles string>
Cc1nc[nH]c1C(=O)NNC(=S)Nc1ccc([N+](=O)[O-])cc1

>  <metric name>
Tmax

>  <numeric result>
30

$$$$

Please turn your attention to the following entry.
[ask] Determine from records and report Tmax for Cc1nc[nH]c1C(=O)NNC(=S)Nc1cccc(I)c1
[reply] 30

---

Quick list: bioavailability per entry.
Test: Oral bioavailability in BALB/c mouse serum at 25 mg/kg measured upto 60 mins by LC-MS/MS analysis
Assay type: ADME, organism-based
Enter your answer as a number in %; do not include the unit.

>  <structure smiles string>
Cc1nc[nH]c1C(=O)NNC(=S)Nc1cccc(I)c1

>  <metric name>
bioavailability

>  <numeric result>
30.1

$$$$

[ask] Determine from records and report bioavailability for Cc1nc[nH]c1C(=O)NNC(=S)Nc1ccc([N+](=O)[O-])cc1
[reply] 10.7
